Substrate: gfPET
Experiment: Proxy for plastic degradation [Released monomer concentration (HPLC/LC-MS) (TPA+MHET+BHET)]
Settings: 80 °C
The following proteins are shown together with reported Proxy for plastic degradation values.
endpoint name: Proxy for plastic degradation (mmol/h)

[
  {
    "protein": "unnamed (protein) MANPYERGPNPTDALLEARSGPFSVSEENVSRLSASGFGGGTIYYPRENNTYGAVAISPGYTGTEASIAWLGERIASHGFVVITIDTITTLDQPDSRAEQLNAALNHMINRASSTVRSRIDSSRLAVMGHSMGGGGSLRLASQRPDLKAAIPLTPWHLNKNWSSVTVPTLIIGADLDTIAPVATHAKPFYNSLPSSISKAYLELDGATHFAPNIPNKIIGKYSVAWLKRFVDNDTRYTQFLCPGPRDGLFGEVEEYRSTCPF",
    "endpoint name": "Proxy for plastic degradation",
    "observed": 0.05
  },
  {
    "protein": "unnamed (protein) MANPYERGPAPTTSSIEASRGPFAIASVTVSRSSVSGFGGGTIYYPRDTSEGTFGAVAIAPGFTADEGSMAWYGPRIASQGFVVFTIDTITRLDQPDSRGRQLLAALDYLTQRSSVRSRIDSSRLAVMGHSMGGGGSLEASVSRPSLKAAIPLTPWNLKKNWRDVRVPTLIVGAESDSIASVRTHAEPFYESIPSTTNKAYLELNNATHFAPNISNTTIAKYSISWLKRFVDNDTRYEQFLCPPPRPDRDIEEYRSTCPH",
    "endpoint name": "Proxy for plastic degradation",
    "observed": 0.05
  },
  {
    "protein": "unnamed (protein) MANPYERGPDPTVQSIEAVRGPFSVSETNVSRLVVTGFGGGTIYYPRDTSQGTFGAVAIAPGFTASEGSMAWYGPRIASQGFVVFTIDTLTRLDQPDSRGRQLLAALDYLTQRSSVRSRIDSSRLAVMGHSMGGGGSLEASESRPSLKASIPLTPWNLKKNWRNNRVPTLIVGAENDSIASVRTHAEPFYESIPSTTNKAYLELNNATHFAPNISNTTIAKYSISWLKRFVDNDTRYEQFLCPPPRPDRDIEEYRCTCPY",
    "endpoint name": "Proxy for plastic degradation",
    "observed": 0.05
  }
]

Ref: the PETadex activity labels (doi:10.1002/cssc.202101062)
